# Assay name: Soluble expression in Escherichia coli BL21(DE3)
# Format: physicochemical
# Run conditions: expression in E. coli BL21(DE3)
Observable: Solubility Soluble expression
Hi, when you answer, please include the unit after the number. Thanks!

Req: Which Solubility Soluble expression value belongs to CID 210992: heterodimer with SEQ ID NO: 10 as N-terminal monomer (protein, Col2 binding protein (dimer) 210992) IAAKFDEAQQAAFYEILHLPNLTEQQRNYFIQWLRDDPSVSLEVLGTAQRLNDSQAPKIAAKFDEAQQLAFYQILHLENLTEEQRNAFIQSLRDDPSVSTEVLGEAEKLNYSQAPK ?
Resp: 95%
